- System: SK-MEL-28 melanoma
- MEASUREMENT_PROTOCOL: NCI-60 one-dose screen, 48 h (100 = growth as untreated, 0 = no growth, -100 = all killed)
- COND: 10 µM
- Experimental: Growth inhibition of the SK-MEL-28 human tumor cell line is measured as a screen for anti-cancer activity. Cells are grown in 96 well plates and exposed to the test compound for 48 hours. Compounds are tested at a single concentration, which is 10^-5 M for most compounds. The reported endpoint is percent growth (GI% or GIPRCNT), where numbers from 0 - 100% represent growth inhibition, and numbers from -100% - 0 represent cell death. For example, a value of 40 represents 60% growth inhibition. […]
This is part of a sample that, as a whole, favours compounds with a hit. Of some 83,000 tested, about 20% had one in any assay.
RECORDED_ENDPOINT: growth (%)

>  <COMPOUND_SMILES>
CCCCCCCCCCCCCCCCn1cc[n+](C)c1

>  <TGT>
SK-MEL-28 melanoma

>  <RECORDED_ENDPOINT>
growth

>  <RESULT>
-86.2

$$$$
>  <COMPOUND_SMILES>
O=C(O)CCCN1C(=O)NC2(C1=O)c1ccccc1-c1ccccc12

>  <TGT>
SK-MEL-28 melanoma

>  <RECORDED_ENDPOINT>
growth

>  <RESULT>
107

$$$$
>  <COMPOUND_SMILES>
O=[N+]([O-])c1cc2ncccc2c2ncccc12

>  <TGT>
SK-MEL-28 melanoma

>  <RECORDED_ENDPOINT>
growth

>  <RESULT>
92

$$$$
>  <COMPOUND_SMILES>
O=C(Nc1cccc(C(F)(F)F)c1)C(Cl)Cl

>  <TGT>
SK-MEL-28 melanoma

>  <RECORDED_ENDPOINT>
growth

>  <RESULT>
104

$$$$
>  <COMPOUND_SMILES>
COc1ccc(-c2cn[nH]c2-c2cc(OC)c(OC)c(OC)c2)cc1

>  <TGT>
SK-MEL-28 melanoma

>  <RECORDED_ENDPOINT>
growth

>  <RESULT>
43.6

$$$$
>  <COMPOUND_SMILES>
Cc1ccc2nc(-c3ccc(OCC(=O)N=Nc4c(O)[nH]c5ccccc45)cc3)[nH]c2c1

>  <TGT>
SK-MEL-28 melanoma

>  <RECORDED_ENDPOINT>
growth

>  <RESULT>
102

$$$$
>  <COMPOUND_SMILES>
COc1ccc(-c2oncc2-c2cc(OC)c3c(c2)OCO3)cc1

>  <TGT>
SK-MEL-28 melanoma

>  <RECORDED_ENDPOINT>
growth

>  <RESULT>
37

$$$$
>  <COMPOUND_SMILES>
CCCCCCCC/C=C/CCCCCCCCC1=NCCN1CCO

>  <TGT>
SK-MEL-28 melanoma

>  <RECORDED_ENDPOINT>
growth

>  <RESULT>
90.5

$$$$
>  <COMPOUND_SMILES>
C#CCNCCCN1C(=O)c2ccc3c4c(ccc(c24)C1=O)C(=O)N(CCCNCC#C)C3=O

>  <TGT>
SK-MEL-28 melanoma

>  <RECORDED_ENDPOINT>
growth

>  <RESULT>
-81.8

$$$$
>  <COMPOUND_SMILES>
O=C1CC[C@@H](C(=O)N[C@H]2CSSC[C@@H](C(=O)N/C=C/c3ccc(O)cc3)NC(=O)[C@H](Cc3ccccc3)NC(=O)[C@@H]3CCCN3C(=O)[C@@H]3CCCN3C2=O)N1

>  <TGT>
SK-MEL-28 melanoma

>  <RECORDED_ENDPOINT>
growth

>  <RESULT>
101

$$$$

====

Parameter: growth. Scope: all listed entries.
- System: SK-MEL-2 melanoma
- MEASUREMENT_PROTOCOL: NCI-60 one-dose screen, 48 h (100 = growth as untreated, 0 = no growth, -100 = all killed)
- COND: 10 µM
This is part of a sample that, as a whole, favours compounds with a hit. Of some 83,000 tested, about 20% had one in any assay.

>  <MOLECULE>
Cc1ccc2oc(=O)cc(/C(=C3/C=CC=N3)c3ccc[nH]3)c2c1

>  <TGT>
SK-MEL-2 melanoma

>  <growth / %>
2.71

$$$$
>  <MOLECULE>
O=C1/C(=C/c2ccc(O)cc2)Oc2ccc(Cl)cc21

>  <TGT>
SK-MEL-2 melanoma

>  <growth / %>
109

$$$$
>  <MOLECULE>
COc1cccc(C(=O)NNc2nc(N3CCN(C4CCCCC4)CC3)nc(N3CCN(C(c4ccccc4)c4ccccc4)CC3)n2)c1

>  <TGT>
SK-MEL-2 melanoma

>  <growth / %>
87.3

$$$$
>  <MOLECULE>
[O-]c1c[n+](-c2ccc(Cl)cc2)no1

>  <TGT>
SK-MEL-2 melanoma

>  <growth / %>
102

$$$$
>  <MOLECULE>
NC1CCC(Nc2nc(NCc3ccc(-c4ccco4)nc3)c3ncn(C4CCCC4)c3n2)CC1 (stereo unspecified)

>  <TGT>
SK-MEL-2 melanoma

>  <growth / %>
-73.6

$$$$
>  <MOLECULE>
CCCc1c(CC)c(=N)c2ccccc2n1C

>  <TGT>
SK-MEL-2 melanoma

>  <growth / %>
37.3

$$$$
>  <MOLECULE>
CC(=O)OC1Oc2ccccc2-c2oc(=O)c(-c3ccc(F)cc3)cc21 (stereo unspecified)

>  <TGT>
SK-MEL-2 melanoma

>  <growth / %>
86.2

$$$$
>  <MOLECULE>
O=C(O)CCCCSCCCCC(=O)O

>  <TGT>
SK-MEL-2 melanoma

>  <growth / %>
93.2

$$$$
>  <MOLECULE>
C=CCOc1ccc2c(c1)CC[C@@H]1[C@@H]2CC[C@]2(C)C(=O)/C(=N/O)C[C@@H]12

>  <TGT>
SK-MEL-2 melanoma

>  <growth / %>
54.6

$$$$
>  <MOLECULE>
COc1ccc(OC)c([N+](=O)[O-])c1C=O

>  <TGT>
SK-MEL-2 melanoma

>  <growth / %>
136

$$$$
>  <MOLECULE>
COCCOC(=O)NC(=O)Nc1ccc(/C(=N/O)c2ccc(Cl)cc2)cc1

>  <TGT>
SK-MEL-2 melanoma

>  <growth / %>
18.7

$$$$

====

This listing pairs molecules with measured growth.
- Tested on: NCI-H322M lung
- MEASUREMENT_PROTOCOL: NCI-60 one-dose screen, 48 h (100 = growth as untreated, 0 = no growth, -100 = all killed)
- COND: 10 µM
This is part of a sample that, as a whole, favours compounds with a hit. Of some 83,000 tested, about 20% had one in any assay.
RECORDED_ENDPOINT: growth (%)

>  <MOLECULE>
N#Cc1cnc2ccc(NCc3cnc[nH]3)cc2c1Nc1ccc(F)c(Cl)c1

>  <RECORDED_ENDPOINT>
growth

>  <RESULT>
1.96

$$$$
>  <MOLECULE>
O=C(Nc1ccc(OCc2nnc(-c3ccccc3)o2)c(F)c1)Nc1ccc(Cl)c(Cl)c1

>  <RECORDED_ENDPOINT>
growth

>  <RESULT>
62.5

$$$$
>  <MOLECULE>
COc1ccc(N2CCN(c3nc(-c4ccccc4)c(C#N)c(=O)[nH]3)CC2)cc1

>  <RECORDED_ENDPOINT>
growth

>  <RESULT>
94.6

$$$$
>  <MOLECULE>
CCCOCC(O)CNCCN (stereo unspecified)

>  <RECORDED_ENDPOINT>
growth

>  <RESULT>
105

$$$$
>  <MOLECULE>
COC(=O)c1cnc2c(c1)Oc1ccccc1-c1ccnn1-2

>  <RECORDED_ENDPOINT>
growth

>  <RESULT>
105

$$$$
>  <MOLECULE>
N#Cc1ncc(-c2cc(F)ccc2F)c(NC2CCCCCC2)n1

>  <RECORDED_ENDPOINT>
growth

>  <RESULT>
73.6

$$$$

====

- System: BT-549 breast
- MEASUREMENT_PROTOCOL: NCI-60 one-dose screen, 48 h
- COND: 10 µM
About 83,000 compounds went through this panel and 20% of them were active in at least one assay; those are over-represented in the sample as a whole. Active and inactive are the calls of the source. The calls were made as follows: active = growth percent below 10; inactive = the rest.
Outcome codes: y for active, n for inactive

>  <COMPOUND>
Cn1c(=O)c2[nH]c(C(O)c3ccc(Cl)cc3)nc2n(C)c1=O (configuration not stated)

>  <QUALITATIVE_LABEL>
n

$$$$
>  <COMPOUND>
COc1cccc(-c2nnc(COc3ccc(-c4nc5ccccc5[nH]4)cc3OC)o2)c1

>  <QUALITATIVE_LABEL>
n

$$$$
>  <COMPOUND>
c1ccc(OCCC[P+](c2ccccc2)(c2ccccc2)c2ccccc2)cc1

>  <QUALITATIVE_LABEL>
n

$$$$
>  <COMPOUND>
O=C1/C(=C/c2ccc(O)cc2)CSc2ccc(Cl)cc21

>  <QUALITATIVE_LABEL>
n

$$$$
>  <COMPOUND>
O=C(NC1CCCC1)c1ccc(N2CCC(NCc3cccc(C(F)(F)F)c3)CC2)cc1

>  <QUALITATIVE_LABEL>
n

$$$$
>  <COMPOUND>
c1ccc(COCC[P+](c2ccccc2)(c2ccccc2)c2ccccc2)cc1

>  <QUALITATIVE_LABEL>
y

$$$$
>  <COMPOUND>
COc1ccc(/C=C(\c2cc(OC)c(OC)c(OC)c2)c2nnc(-c3cccs3)o2)cc1

>  <QUALITATIVE_LABEL>
n

$$$$
>  <COMPOUND>
COc1cccc(C(=O)NNc2nc(N3CCOCC3)nc(N3CCN(C(c4ccccc4)c4ccccc4)CC3)n2)c1

>  <QUALITATIVE_LABEL>
n

$$$$
>  <COMPOUND>
N#CN1CC[C@H](C(=O)Nc2ncc(-c3ccccc3)s2)C1

>  <QUALITATIVE_LABEL>
y

$$$$
>  <COMPOUND>
NC1CCC(Nc2nc(NCc3ccc(-c4ccccc4O)nc3)c3ncn(C4CCCC4)c3n2)CC1 (configuration not stated)

>  <QUALITATIVE_LABEL>
y

$$$$
>  <COMPOUND>
CC(=O)N(O)c1ccc(/C=C/c2ccccc2)cc1

>  <QUALITATIVE_LABEL>
n

$$$$
>  <COMPOUND>
CCN(CC)CCCOC(=O)Nc1ccccc1Cl

>  <QUALITATIVE_LABEL>
n

$$$$
>  <COMPOUND>
COc1ccc(/C=C2\CCC3C(CCCC34OCCO4)C2=O)cc1 (configuration not stated)

>  <QUALITATIVE_LABEL>
n

$$$$
>  <COMPOUND>
CCCOCC(O)CNCCN (configuration not stated)

>  <QUALITATIVE_LABEL>
n

$$$$
>  <COMPOUND>
Cc1ccc(C(=O)O)c(N)c1C

>  <QUALITATIVE_LABEL>
n

$$$$
>  <COMPOUND>
O=C(O)c1ccccc1C(=O)c1cccc2c(F)cccc12

>  <QUALITATIVE_LABEL>
n

$$$$
>  <COMPOUND>
O=C(N/N=c1/ccoc2cccnc12)N1CCN(c2ncccn2)CC1

>  <QUALITATIVE_LABEL>
n

$$$$
>  <COMPOUND>
Cc1nc2sccn2c1-c1csc(Nc2cccc(Cl)c2C)n1

>  <QUALITATIVE_LABEL>
n

$$$$
>  <COMPOUND>
O=C(COCc1c(-c2ccccc2)no[n+]1[O-])Nc1nc(-c2ccc(Cl)cc2)cs1

>  <QUALITATIVE_LABEL>
n

$$$$
>  <COMPOUND>
CNC(=O)c1cc(Oc2ccc(NC(=O)Nc3ccc(Cl)c(OC4CCCCC4)c3)c(F)c2)ccn1

>  <QUALITATIVE_LABEL>
n

$$$$
>  <COMPOUND>
CCOc1nc(-c2ccccc2)cc2c(O)c(C(=O)NC(C)C)[nH]c(=O)c12

>  <QUALITATIVE_LABEL>
n

$$$$
>  <COMPOUND>
CNCCCNCCCN1C(=O)c2ccc3c4c(ccc(c24)C1=O)C(=O)N(CCCNCc1ccccc1OC)C3=O

>  <QUALITATIVE_LABEL>
n

$$$$

Values compiled from PubChem BioAssay (NCI).
